test system: Yap1 mRNA; experiment: Antisense inhibition of human Yap1 in A-431 cells by cEt gapmers, single dose (Example 3, RTS36584); type: cell-based; details: Table 28; Yap1 mRNA as percent of untreated control; 3-10-3 cEt gapmers targeting SEQ ID NO.: 1, and 2
Strand notation (5' to 3'): a small letter for the sugar, then the base; units joined by * are phosphorothioate-linked, units joined directly phosphodiester-linked; [ ] holds rarer units or linkages, { } end groups; capitals alone tell only the bases. k = constrained ethyl (cEt); [5mC] = 5-methylcytosine; d = 2'-deoxy (DNA)
readout name: YAP1 (% UTC)
Answers are plain numbers, in % UTC.

Solved entries:
substance	readout name	units label	endpoint result
1075534 (kA*k[5mC]*k[5mC]*d[5mC]*dA*dA*dG*dG*dA*d[5mC]*dA*dG*d[5mC]*kA*k[5mC]*kA; antisense) [compound 1075534]	YAP1 (% UTC)	% UTC	53
1076366 (antisense kA*kT*kT*dT*dA*d[5mC]*dA*dT*dG*dA*dG*dA*dG*kG*kA*kG) [compound 1076366]	YAP1 (% UTC)	% UTC	4
1076494 (k[5mC]*kT*kA*dA*dT*dT*dG*dA*dA*dG*d[5mC]*dT*dG*kG*k[5mC]*kA; antisense) [compound 1076494]	YAP1 (% UTC)	% UTC	3

Parameters: items (list). Returns: YAP1 (% UTC) for each item.
1. 1074990 (antisense kG*k[5mC]*k[5mC]*dG*d[5mC]*dA*dA*dA*dG*dG*dA*dA*dA*kG*kG*kG) [compound 1074990]
2. 1074446 (kA*kT*kG*dA*dT*dA*dG*d[5mC]*dA*d[5mC]*dT*dA*dG*kG*kA*kG; antisense) [compound 1074446]
3. 1076078 (k[5mC]*kT*kT*dT*dA*dG*d[5mC]*d[5mC]*dT*d[5mC]*dT*dA*dT*kA*k[5mC]*k[5mC]; antisense) [compound 1076078]
4. 1074830 (kG*kA*kG*dG*dA*dT*dA*dA*dA*dA*dT*d[5mC]*d[5mC]*kA*k[5mC]*k[5mC]; antisense) [compound 1074830]
5. 1075854 (k[5mC]*kT*kT*dA*dT*dA*dA*dT*dA*dG*dA*dG*d[5mC]*kT*kA*kA; antisense) [compound 1075854]

108
3
23
89
52

Provide each entry's YAP1 (% UTC) from the list below.
1. 1074894 (antisense kT*kG*k[5mC]*dT*dG*dA*dA*dG*dT*dT*dT*dA*dG*k[5mC]*k[5mC]*kT) [compound 1074894]
2. 1075182 (kG*kA*kT*dA*dT*dT*dA*dT*dA*dT*dT*dA*d[5mC]*kT*kA*k[5mC]; antisense) [compound 1075182]
3. 1075278 (antisense kT*kA*kT*dA*d[5mC]*dT*dA*dA*d[5mC]*dA*dT*dT*d[5mC]*kA*k[5mC]*kG) [compound 1075278]
4. 1075310 (antisense kG*kT*kA*dA*dT*dT*dA*dA*dA*d[5mC]*dG*dA*dA*kA*k[5mC]*kA) [compound 1075310]
5. 1074542 (kA*kG*kG*d[5mC]*dA*d[5mC]*dT*dA*dT*d[5mC]*d[5mC]*dA*d[5mC]*kA*kG*kT; antisense) [compound 1074542]
6. 1074958 (antisense kT*kA*kA*d[5mC]*d[5mC]*d[5mC]*dG*dG*dG*dT*dT*dT*dT*kT*kG*kT) [compound 1074958]

1. 79
2. 61
3. 48
4. 84
5. 21
6. 107

// each substance listed below needs its YAP1 (% UTC)
1. 1076462 (kT*k[5mC]*kA*dG*dA*dA*dG*dG*dA*dT*dA*dT*dG*k[5mC]*kA*kG; antisense) [compound 1076462]
2. 1074766 (kA*kT*k[5mC]*d[5mC]*d[5mC]*dA*dA*dT*dG*d[5mC]*dT*dA*d[5mC]*k[5mC]*k[5mC]*kA; antisense) [compound 1074766]
3. 1074350 (antisense kT*kA*kG*dT*d[5mC]*d[5mC]*dA*d[5mC]*dT*dG*dT*d[5mC]*dT*kG*kT*kA) [compound 1074350]
4. 1074414 (kA*kA*k[5mC]*dT*dG*dT*dG*dA*dA*dA*dG*dA*dG*kG*kT*k[5mC]; antisense) [compound 1074414]
5. 1075694 (kA*k[5mC]*kA*dT*dT*dA*dA*dA*dA*dG*dT*dT*dG*kG*kG*kT; antisense) [compound 1075694]

1: 6; 2: 8; 3: 14; 4: 6; 5: 11

###

system: Yap1 mRNA; experiment: Antisense inhibition of human Yap1 in A-431 cells by cEt gapmers, single dose (Example 4, RTS4814); format: cell-based; conditions: Table 15; A-431 cells, 5,000 cells per well, free uptake, 2,000 nM, approximately 48 hours; RTS4814; normalized to RIBOGREEN; Yap1 mRNA relative to untreated control; * = targets amplicon region of primer probe set
Strand notation (5' to 3'): a small letter for the sugar, then the base; units joined by * are phosphorothioate-linked, units joined directly phosphodiester-linked; [ ] holds rarer units or linkages, { } end groups; capitals alone tell only the bases. k = constrained ethyl (cEt); [5mC] = 5-methylcytosine; d = 2'-deoxy (DNA)
Please enter class 1 where YAP1 (% UTC) is greater than or equal to 40 % UTC, and class 0 where it is lower.

Look over these answered cases.
substance	subject of test	class label
1074913 (antisense k[5mC]*kA*kT*d[5mC]*d[5mC]*d[5mC]*dG*dA*dG*dT*dG*dG*dG*k[5mC]*kT*kA) [Compound 1074913]	Yap1 mRNA	class 1
1075425 (antisense kA*kT*kT*dA*dT*dT*dA*dA*dT*d[5mC]*d[5mC]*dT*dG*kT*k[5mC]*k[5mC]) [Compound 1075425]	Yap1 mRNA	class 0
1075905 (k[5mC]*k[5mC]*kT*dG*dA*dA*d[5mC]*dA*d[5mC]*dA*dG*dG*dA*kG*kT*kA; antisense) [Compound 1075905]	Yap1 mRNA	class 1
1075841 (kA*kT*kT*dT*dA*dG*dG*dT*dA*d[5mC]*dT*d[5mC]*dA*kG*kT*kA; antisense) [Compound 1075841]	Yap1 mRNA	class 0
1074593 (antisense kA*kG*kG*dA*dG*d[5mC]*dA*dA*dG*dT*d[5mC]*dT*dT*kG*kT*kA) [Compound 1074593]	Yap1 mRNA	class 0

Alright, here's another substance for you.
Say whether 1076257 (k[5mC]*kT*kA*dA*dG*dA*dA*dA*d[5mC]*dT*d[5mC]*dA*dT*kA*kG*kT; antisense) [Compound 1076257] shows YAP1 (% UTC) of 40 % UTC or more.
class 1

###

Consider the following substances; for each one, report its YAP1 (% UTC).
test system: Yap1 mRNA; test: Antisense inhibition of human Yap1 in A-431 cells by cEt gapmers, single dose (Example 3, RTS36584); type: cell-based; settings: Table 11; A-431 cells, 5,000 cells per well, free uptake, 2,000 nM oligonucleotide, approx. 48 hours; primer probe set RTS36584; Yap1 mRNA normalized to RIBOGREEN, percent of untreated control
Strand notation (5' to 3'): a small letter for the sugar, then the base; units joined by * are phosphorothioate-linked, units joined directly phosphodiester-linked; [ ] holds rarer units or linkages, { } end groups; capitals alone tell only the bases. k = constrained ethyl (cEt); [5mC] = 5-methylcytosine; d = 2'-deoxy (DNA)

Parameter requested: YAP1 (% UTC). Apply to each item below.
1. 958678 (kG*kG*kA*dG*dG*dA*dG*dT*d[5mC]*dA*d[5mC]*d[5mC]*dA*kT*kG*kG; antisense) [Compound 958678]
2. 958738 (antisense kT*k[5mC]*kT*dA*dT*dA*dT*dG*dT*dT*dT*d[5mC]*d[5mC]*k[5mC]*k[5mC]*k[5mC]) [Compound 958738]
3. 958483 (antisense kG*kA*kG*dG*dA*dT*dT*dA*dA*dA*dG*dT*dA*kT*k[5mC]*kT) [Compound 958483]

1: 74 % UTC; 2: 11 % UTC; 3: 17 % UTC

Lab note: each substance below needs its YAP1 (% UTC) filled in.
1. 958793 (antisense k[5mC]*k[5mC]*kG*d[5mC]*dA*dT*dT*dG*d[5mC]*d[5mC]*dT*dA*dA*kG*kA*kG) [Compound 958793]
2. 958498 (kG*kA*kG*dT*dA*dT*dG*dT*dG*dG*d[5mC]*dA*dA*kT*kA*kA; antisense) [Compound 958498]
3. 958503 (kA*kA*k[5mC]*d[5mC]*dA*dT*d[5mC]*d[5mC]*d[5mC]*dA*dA*dG*d[5mC]*kT*kA*k[5mC]; antisense) [Compound 958503]
4. 958473 (antisense kG*kT*k[5mC]*dT*d[5mC]*d[5mC]*dT*dT*dA*dG*dA*dT*d[5mC]*k[5mC]*kT*kT) [Compound 958473]
5. 958713 (antisense kT*kG*k[5mC]*dT*dA*dG*dA*dG*dG*d[5mC]*dT*dG*dT*kT*k[5mC]*k[5mC]) [Compound 958713]

1: 9 % UTC; 2: 1 % UTC; 3: 15 % UTC; 4: 5 % UTC; 5: 55 % UTC
